system: KM12 colon; experiment: NCI-60 one-dose screen, 48 h (100 = growth as untreated, 0 = no growth, -100 = all killed); conditions: 10 µM unless noted
This is part of a sample that, as a whole, favours compounds with a hit. Of some 83,000 tested, about 20% had one in any assay.
Class (required): determined from growth; valid ranges are bin A = under 40%, bin B = from 40% up to 60%, bin C = 60% and over

                                   compound  answer_label
0  COc1ccccc1-c1ccc2c(N)c(C(=O)c3ccc4c(c3)OCO4)sc2n1         bin B
1  COc1cc(OC)c(/C=C/C(=O)c2c(OC)cc(OC)cc2OC)c(OC)c1         bin A
2  CNCc1cccc2c1OCCOCCOCCN(C)S(=O)(=O)c1ccc(cc1)-c1cnc(N)c(n1)C(=O)N2         bin B
3            O=C1O[C@H]([C@H](O)CO)C(O)=C1O         bin C
4  O=C1CC(c2nc3ccccc3[nH]2)CN1C1CCCCC1 (stereo not given)         bin C
5     Oc1cc(O)c2c(=S)cc(-c3ccc(Cl)cc3)oc2c1         bin A
6               Oc1c(Cl)cc(Cl)cc1CNc1nccnn1         bin C
7  Cc1nc2sc(C(=O)Nc3cccc4c3OCCO4)c(N)c2cc1C(C)O (stereo not given)         bin A
8  CC/C=C\C[C@H](O)C/C=C1/C(=O)C=C[C@@H]1C/C=C\CCCC(=O)OC(C)C         bin A

###

system: NCI-H322M lung; assay: NCI-60 one-dose screen, 48 h (100 = growth as untreated, 0 = no growth, -100 = all killed); details: 10 µM unless noted
The panel holds about 83,000 compounds, 20% with a hit somewhere; the sample as a whole holds those more often.
observed-property: growth (%)

>>> print(df.to_string())
                                   molecule  observed_value
0  COc1cc2nc3cc([N+](=O)[O-])ccc3c(NCCCNCC(C)(C)O)c2cc1OC           -24.8
1  Nc1nc2c(c3ncccc13)C(c1ccc(Cl)c(Cl)c1)Cc1ncccc1-2 (stereo not given)            40.9
2  COC(=O)[C@@H]1CC[C@]2(C)[C@H](CC[C@@H]3O[C@@]32C)[C@@]1(C)CC(=O)c1ccoc1             102
3  Cn1c2c(Cl)c(Cl)ccc2c2ccn3c(=O)c4ccccc4nc3c21            90.9
4  O=C(Nc1nc(-c2ccccc2)cc(-c2ccc(Cl)cc2)n1)c1ccncc1            95.6
5  COc1cc(NCCCCN=C(N)NC(N)=NC(C)C)c2ncccc2c1            33.6
6    O=c1[nH]c(-c2ccccn2)nc2sc3c(c12)CCCCC3            48.5
7  CCOC(=O)c1c2c(n3ccc(NC(=O)CCN4CCOCC4)cc13)C(=O)c1ncccc1C2=O            14.3
8  CS(=O)(CCCCN=C=S)=NC(=O)c1c(F)c(F)c(F)c(F)c1F (stereo not given)             108
9   O=C(O)c1ccccc1Nc1cccc(S(F)(F)(F)(F)F)c1             101

Source of measurements: PubChem BioAssay (NCI)
